Molecular target: hemagglutinin (HA) of influenza B/Harbin/7/94 (Yamagata) (influenza B virus)
Assay: cell-based or functional assay
Kindly supply the reported VNA IC50 values for the records listed here.

Documented VNA IC50 of SD3074 (VHH) VHH: EVQLVESGGGLVQPGGSLRLSCAISGLSLDTYAVGWFRQAPGKEREGITCISSGHGMTYYADSVKGRFTISTDNSKNTLYLQMNSLRAEDTAVYYCATESRYYCSDNWPAPQRYIYWGQGTLVTVSS : > 1000 nM

Documented VNA IC50 of SD3102 (VHH) VHH: EVQLVESGGGLVQPGGSLRLSCAISGLSLDTYAVGWFRQAPGKEREGVSCISSGHGQTYYADSVKGRFTISTDNSKNTLYLQMNSLRAEDTAVYYCATESRYYCSDNWPAPQRYIYWGQGTLVTVSS : > 1000 nM

Documented VNA IC50 of SD3085 (VHH) VHH: EVQLVESGGGLVQPGGSLRLSCAASGFTFSTSWMYWLRQAPGKGLEWVSVINTDGGTYYADSVKGRFTISRDNSKNTLYLQMNSLRAEDTAVYYCAKDWGGPEPTRGQGTLVTVSS : 228 nM

Documented VNA IC50 of SD3101 (VHH) VHH: EVQLVESGGGLVQPGGSLRLSCAISGLSLDTYAVGWFRQAPGKEREGVSCISSGHGSTYYADSVKGRFTISTDNSKNTLYLQMNSLRAEDTAVYYCATESRYYCSDNWPAPQRYIYWGQGTLVTVSS : > 1000 nM

Documented VNA IC50 of SD3053 (VHH) VHH: EVQLVESGGGLVQPGGSLRLSCAASGLSLDTYAMSWFRQAPGKEREGVSCISSGHGFTYYADSVKGRFTISRDNSKNTLYLQMNSLQPEDTARYYCATESRYYCSDNWPAPQRYIYWGQGTQVTVSS : > 1000 nM

Documented VNA IC50 of SD3012 (VHH) VHH: EVQLLESGGGLVQPGGSLRLSCAASGFTLENKAIGWFRQAPGKEREGVLCISKSGSWTYYADSVKGRFTISRDNSKNTVYLQMNSLRPEDTAVYYCATTTAGGGLCWDGTTFSRLASSWGQGTQVTVSS : 78 nM

Documented VNA IC50 of SD3103 (VHH) VHH: EVQLVESGGGLVQPGGSLRLSCAISGLSLDTYAVGWFRQAPGKEREGVSCISSGHGDTYYADSVKGRFTISTDNSKNTLYLQMNSLRAEDTAVYYCATESRYYCSDNWPAPQRYIYWGQGTLVTVSS : > 1000 nM

Documented VNA IC50 of SD3076 (VHH) VHH: EVQLVESGGGLVQPGGSLRLSCAASGLSLDTYAVGWFRQAPGKEREGVSCISSGHGLTYYADSVKGRFTISTDNSKNTLYLQMNSLRAEDTAVYYCATESRYYCSDNWPAPQRYIYWGQGTLVTVSS : > 1000 nM

Origin of measurements: patent US20190359693A1
